Please go through the items and note down their SR(%) cell survival rate, 50 μM.
# Tested on: PC-12 neural cell line
# ASSAY_INFO: Toxicity test in PC-12 nerve cell (MTT)
# Format: cell-based
# RECORDED_CONDITIONS: PC-12 cells, 50 μM compound for 24 h
I only need the number, in %, no unit after it.

[in] Param request: SR(%) cell survival rate, 50 μM | system PC-12 neural cell line | item CCN(CC)Cc1ccccc1CNC(=O)c1cccc(NC(=O)c2ccc([N+](=O)[O-])cc2)c1
[out] 84.65

[in] Param request: SR(%) cell survival rate, 50 μM | system PC-12 neural cell line | item CCN(CC)Cc1ccccc1CNC(=O)c1cccc(NC(=O)c2ccc(OC)cc2)c1
[out] 82.25

[in] Param request: SR(%) cell survival rate, 50 μM | system PC-12 neural cell line | item CCN(CC)Cc1ccccc1NC(=O)c1cccc(NC(=O)c2cccs2)c1
[out] 89.64

[in] Param request: SR(%) cell survival rate, 50 μM | system PC-12 neural cell line | item CCN(CC)Cc1ccccc1CNC(=O)c1cccc(NC(=O)c2cccs2)c1
[out] 84.34

[in] Param request: SR(%) cell survival rate, 50 μM | system PC-12 neural cell line | item CCCN(CCC)Cc1ccccc1CNC(=O)c1cccc(NC(=O)c2cccs2)c1
[out] 84.86

[in] Param request: SR(%) cell survival rate, 50 μM | system PC-12 neural cell line | item CCN(CC)Cc1cccc(CNC(=O)c2cccc(NC(=O)c3cccs3)c2)c1
[out] 82.03

[in] Param request: SR(%) cell survival rate, 50 μM | system PC-12 neural cell line | item CCN(CC)Cc1ccccc1CNC(=O)c1cccc(NC(=O)c2ccc(C)c(C)c2)c1
[out] 80.72

[in] Param request: SR(%) cell survival rate, 50 μM | system PC-12 neural cell line | item CCN(CC)Cc1ccccc1CNC(=O)c1cccc(NC(=O)C2CCCCC2)c1
[out] 83.22

====

# TARGET_OR_TEST_SYSTEM: eqBuChE (BuChE, E.C.3.1.1.8, selected from horse serum) (Equus caballus)
# Construct: BuChE (E.C.3.1.1.8, selected from horse serum); purchased Sigma; host or cells: horse serum
# ASSAY_INFO: Cholinesterase inhibitory activity (DTNB/BTC), eqBuChE
# Type: biochemical
# RECORDED_CONDITIONS: read-out: IC50 (nM) ± SEM eqBuChE
Rule: IC50 below 2 nM gives fulfilled. Equal to or above 2 nM gives not fulfilled.

[in] hey, is IC50 for CCN(CC)Cc1ccccc1CNC(=O)c1cccc(NC(=O)c2ccc(F)c(F)c2)c1 lower than 2 nM or not?
[out] fulfilled

[in] hey, is IC50 for CCN(CC)Cc1ccccc1CNC(=O)c1cccc(NC(=O)c2ccc(Br)cc2)c1 lower than 2 nM or not?
[out] fulfilled

[in] hey, is IC50 for CCN(CC)Cc1ccccc1CNC(=O)c1cccc(NC(=O)c2ccc(Cl)cc2)c1 lower than 2 nM or not?
[out] fulfilled

[in] hey, is IC50 for CCN(CC)Cc1ccccc1CNC(=O)c1cccc(NC(=O)c2ccc(C#N)cc2)c1 lower than 2 nM or not?
[out] not fulfilled

[in] hey, is IC50 for CCN(CC)Cc1ccccc1CNC(=O)c1cccc(NC(=O)c2ccc[nH]2)c1 lower than 2 nM or not?
[out] fulfilled

[in] hey, is IC50 for CCN(CC)Cc1ccccc1CNC(=O)c1cccc(NC(=O)c2ccc(I)cc2)c1 lower than 2 nM or not?
[out] fulfilled

[in] hey, is IC50 for CCN(CC)Cc1ccccc1CNC(=O)c1cccc(NC(=O)c2ccc(C(C)C)cc2)c1 lower than 2 nM or not?
[out] fulfilled

[in] hey, is IC50 for CCN(CC)Cc1ccccc1CNC(=O)c1cccc(NC(=O)C2CCCCC2)c1 lower than 2 nM or not?
[out] not fulfilled

====

# TARGET_OR_TEST_SYSTEM: eqBuChE (BuChE, E.C.3.1.1.8, selected from horse serum) (Equus caballus, UniProt P81908)
# Construct: BuChE (E.C.3.1.1.8, selected from horse serum); purchased Sigma; host or cells: horse serum
# Sequence (P81908 whole entry): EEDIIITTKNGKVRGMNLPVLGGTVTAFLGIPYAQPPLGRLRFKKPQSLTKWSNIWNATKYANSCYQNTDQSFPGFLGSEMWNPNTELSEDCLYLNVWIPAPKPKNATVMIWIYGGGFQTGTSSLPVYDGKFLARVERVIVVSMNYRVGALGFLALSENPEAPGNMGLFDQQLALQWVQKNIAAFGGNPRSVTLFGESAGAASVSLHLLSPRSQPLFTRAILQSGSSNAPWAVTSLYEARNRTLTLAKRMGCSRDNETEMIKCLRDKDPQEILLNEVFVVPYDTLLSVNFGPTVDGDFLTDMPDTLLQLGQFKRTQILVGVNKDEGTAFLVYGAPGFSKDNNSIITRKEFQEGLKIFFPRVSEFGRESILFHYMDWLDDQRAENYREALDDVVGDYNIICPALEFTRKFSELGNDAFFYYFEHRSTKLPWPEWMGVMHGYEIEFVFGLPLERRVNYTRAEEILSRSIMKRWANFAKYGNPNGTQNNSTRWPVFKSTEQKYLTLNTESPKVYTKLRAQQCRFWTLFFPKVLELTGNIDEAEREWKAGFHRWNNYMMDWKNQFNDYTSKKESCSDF
# ASSAY_INFO: Cholinesterase inhibitory activity (DTNB/BTC), eqBuChE
# Assay type: biochemical
# RECORDED_CONDITIONS: read-out: IC50 (nM) ± SEM eqBuChE
MEASURED_ATTRIBUTE: IC50 (nM)
I only need the number, in nM, no unit after it.

[in] Give a short answer stating reported IC50 for CCN(CC)Cc1ccccc1CNC(=O)c1cccc(NC(=O)c2ccc(C)c(C)c2)c1 .
[out] 0.8

[in] Give a short answer stating reported IC50 for CCN(CC)Cc1ccccc1CNC(=O)c1cccc(NC(=O)c2ccc([N+](=O)[O-])cc2)c1 .
[out] 22.6

[in] Give a short answer stating reported IC50 for CCN(CC)Cc1ccccc1CNC(=O)c1cccc(NC(=O)c2ccc(C(F)(F)F)cc2)c1 .
[out] 0.38

[in] Give a short answer stating reported IC50 for CCN(CC)Cc1ccc(CNC(=O)c2cccc(NC(=O)c3cccs3)c2)cc1 .
[out] 24.7

====

# Test system: PC-12 neural cell line
# ASSAY_INFO: Toxicity test in PC-12 nerve cell (MTT)
# Assay type: cell-based
# RECORDED_CONDITIONS: PC-12 cells, 50 μM compound for 24 h
# Experimental: Toxicity Test in PC-12 Nerve Cell: […] Instrument: THERMO Varioskan Flash full-wavelength multifunctional microplate reader. About 3×10^3 PC-12 cells were evenly mixed in 0.1 mL of DMEM medium containing 10% FBS, and plated on a 96-well bottom plate, and incubated overnight at 37° C. in an environment containing 5% CO2. […] The color reaction was measured at 492 nm using a spectrophotometer (Thermo, multiskan FC).
Please go through the items and note down their SR(%) cell survival rate, 50 μM.
I only need the number, in %, no unit after it.

[in] Give a short answer stating reported SR(%) cell survival rate, 50 μM for CCN(CC)Cc1ccccc1CNC(=O)c1cccc(NC(=O)c2ccc(C(C)=O)cc2)c1 .
[out] 72.56

[in] Give a short answer stating reported SR(%) cell survival rate, 50 μM for CCN(CC)Cc1ccccc1CNC(=O)c1cccc(NC(=O)c2ccccc2)c1 .
[out] 83.4

[in] Give a short answer stating reported SR(%) cell survival rate, 50 μM for CCN(CC)Cc1ccccc1CNC(=O)c1cccc(NC(=O)c2ccccc2OC)c1 .
[out] 85.46

[in] Give a short answer stating reported SR(%) cell survival rate, 50 μM for CCN(CC)Cc1ccccc1CNC(=O)c1cccc(NC(=O)c2ccc(Br)cc2)c1 .
[out] 85.21

====

# TARGET_OR_TEST_SYSTEM: hBuChE (Homo sapiens, UniProt P06276)
# ASSAY_INFO: Cholinesterase inhibitory activity (DTNB/BTC), hBuChE
# Type: biochemical
# RECORDED_CONDITIONS: mean ± SEM
MEASURED_ATTRIBUTE: log10 IC50 (log10 of the value in nM)
In plain terms, each number is the log10 of measured IC50 in nM.

[in] Param request: log10 IC50 | system hBuChE (Homo sapiens, UniProt P06276) | item CCN(CC)Cc1ccccc1CNC(=O)c1cccc(NC(=O)c2ccc(C=O)cc2)c1
[out] 0.32

[in] Param request: log10 IC50 | system hBuChE (Homo sapiens, UniProt P06276) | item CCN(CC)Cc1ccccc1CNC(=O)c1cccc(NC(=O)c2ccc(F)c(F)c2)c1
[out] -0.24

[in] Param request: log10 IC50 | system hBuChE (Homo sapiens, UniProt P06276) | item CCN(CC)Cc1ccccc1CNC(=O)c1cccc(NC(=O)c2ccccc2OC)c1
[out] 1.30

[in] Param request: log10 IC50 | system hBuChE (Homo sapiens, UniProt P06276) | item CCN(CC)Cc1ccccc1CNC(=O)c1cccc(NC(=O)c2ccc(C)c(C)c2)c1
[out] 0.18

[in] Param request: log10 IC50 | system hBuChE (Homo sapiens, UniProt P06276) | item CCN(CC)Cc1ccccc1CNC(=O)c1cccc(NC(=O)c2ccc(C(=O)O)cc2)c1
[out] 0.53

[in] Param request: log10 IC50 | system hBuChE (Homo sapiens, UniProt P06276) | item CCN(CC)Cc1ccccc1CNC(=O)c1cccc(NC(=O)c2ccc(F)cc2)c1
[out] 0.16

[in] Param request: log10 IC50 | system hBuChE (Homo sapiens, UniProt P06276) | item CCN(CC)Cc1ccccc1CNC(=O)c1cccc(NC(=O)c2ccccc2F)c1
[out] 1.24

[in] Param request: log10 IC50 | system hBuChE (Homo sapiens, UniProt P06276) | item CCN(CC)Cc1ccccc1CNC(=O)c1cccc(NC(=O)c2ccc(OC)cc2)c1
[out] 0.02

====

# TARGET_OR_TEST_SYSTEM: eqBuChE (BuChE, E.C.3.1.1.8, selected from horse serum) (Equus caballus, UniProt P81908)
# Construct: BuChE (E.C.3.1.1.8, selected from horse serum); purchased Sigma; host or cells: horse serum
# ASSAY_INFO: Cholinesterase inhibitory activity (DTNB/BTC), eqBuChE
# Type: biochemical
# RECORDED_CONDITIONS: read-out: IC50 (nM) ± SEM eqBuChE
MEASURED_ATTRIBUTE: IC50 (nM)
I only need the number, in nM, no unit after it.

[in] Give a short answer stating reported IC50 for CCN(CC)Cc1ccccc1CNC(=O)c1cccc(NC(=O)c2ccc(C(=O)OC)cc2)c1 [Compound 29] .
[out] 2.48

[in] Give a short answer stating reported IC50 for CCN(CC)Cc1ccccc1CNC(=O)c1cccc(NC(=O)c2ccccc2)c1 [Compound 11] .
[out] 0.48

[in] Give a short answer stating reported IC50 for CCN(CC)Cc1ccccc1CNC(=O)c1cccc(NC(=O)c2cccc(OC)c2)c1 [Compound 27] .
[out] 4.91

[in] Give a short answer stating reported IC50 for CCN(CC)Cc1ccccc1CNC(=O)c1cccc(NC(=O)c2ccccc2F)c1 [Compound 18] .
[out] 3.5

[in] Give a short answer stating reported IC50 for CCN(CC)Cc1ccccc1CNC(=O)c1cccc(NC(=O)c2ccc(O)cc2)c1 [Compound 12] .
[out] 0.79

[in] Give a short answer stating reported IC50 for CCN(CC)Cc1ccccc1CNC(=O)c1cccc(NC(=O)c2ccccc2OC)c1 [Compound 28] .
[out] 5.28

[in] Give a short answer stating reported IC50 for CCN(CC)Cc1ccccc1CNC(=O)c1cccc(NC(=O)c2ccc(C)cc2)c1 [Compound 22] .
[out] 0.98

[in] Give a short answer stating reported IC50 for CCN(CC)Cc1ccccc1CNC(=O)c1cccc(NC(=O)c2ccc(N)cc2)c1 [Compound 33] .
[out] 1.56
